Molecular target: T1, corticotropin-releasing hormone (CRH) peptide (human and mouse, UniProt P01143 145-185 (rat entry), not fully specified)
T1 peptide: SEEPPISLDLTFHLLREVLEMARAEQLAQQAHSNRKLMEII
Experiment: cell-based or functional assay
Collected hCRHR1-Luc 0.5 nM CRH IC50 values appear next to each entry.
Provide the reading as a plain figure in pM.

As a guide, the following entries are already answered.
[
  {
    "BINDER": "PR302341-16 (antibody, human IgG1, kappa, V domains shown) VH: QVQLVQSGAEVKKPGASVKVSCKASGYTFTDYFMKWVRQAPGQRLEWMGVINPNNGDIFYNQKFKGRVTITVDKSASTAYMELSSLRSEDTAVYYCARGTDRALFAYWGQGTLVTVSS VL: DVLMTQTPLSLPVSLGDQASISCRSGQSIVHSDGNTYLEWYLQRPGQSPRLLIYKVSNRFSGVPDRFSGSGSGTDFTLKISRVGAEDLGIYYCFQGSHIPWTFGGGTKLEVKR",
    "hCRHR1-Luc 0.5 nM CRH IC50 (pM)": 225
  },
  {
    "BINDER": "PR302341-12 (antibody, human IgG1, kappa, V domains shown) VH: QVQLVQSGAEVKKPGASVKVSCKASGYTFTDYFMKWVRQAPGQGLEWMGVINPNNGDIFYNQKFKGRVTMTVDKSTSTAYMELSSLRSEDTAVYYCARGTDRALFAYWGQGTLVTVSS VL: DVVMTQTPLSLSVTPGQPASISCRSGQSIVHSDGNTYLEWYLQKPGQSPQLLIYKVSNRFSGVPDRFSGSGSGTDFTLKISRVEAEDLGVYYCFQGSHIPWTFGGGTKVEIKR",
    "hCRHR1-Luc 0.5 nM CRH IC50 (pM)": 250
  }
]

query: Consider the binder PR302341-7 (antibody, human IgG1, kappa, V domains shown) VH: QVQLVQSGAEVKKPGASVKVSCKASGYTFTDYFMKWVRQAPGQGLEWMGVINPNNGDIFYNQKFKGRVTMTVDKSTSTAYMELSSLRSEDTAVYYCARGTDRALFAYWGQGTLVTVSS VL: DVVMTQSPLSLPVTLGQPASISCRSGQSIVHSDGNTYLEWFQQRPGQSPRRLIYKVSNRFSGVPDRFSGSGSGTDFTLKISRVEAEDVGVYYCFQGSHIPWTFGGGTKVEIKR and give its recorded hCRHR1-Luc 0.5 nM CRH IC50.
result: 230
